- Test system: SK-MEL-5 melanoma
- assay procedure: NCI-60 one-dose screen, 48 h (100 = growth as untreated, 0 = no growth, -100 = all killed)
- experimental setup: 10 µM unless noted
About 83,000 compounds went through this panel and 20% of them were active in at least one assay; those are over-represented in the sample as a whole.
readout name: growth (%)

molecule | readout name | display unit | number
Oc1ccc(Nc2ccc3ccccc3c2)cc1 | growth | % | 44.7
CCCC[n+]1c(/C=C\c2c(OC)cc(OC)cc2OC)ccc2ccccc21 | growth | % | -97.2
CC(=O)OC1CC2CCC1(C)C2(C)C (stereo unspecified) | growth | % | 106
CCCCCCCCc1cc(Cl)c(O)c(Cl)c1 | growth | % | 108
Nc1ccc(C(=O)/C=C/c2ccccc2)cc1 | growth | % | 102
Cc1oc2c(C)c3oc(=O)cc(C)c3cc2c1CCl | growth | % | 77.6
CN1CCC(c2ccccc2)(c2ccccc2)C(=O)C1 | growth | % | 97.7
CCNc1nnnn1CC | growth | % | 101
O=C1c2ccccc2Cc2cccc(Cl)c21 | growth | % | 96.2
Nc1nc(-c2ccccc2)nc(N)c1N=O | growth | % | 100
COC(=O)Nc1nc2ccc(C3(c4ccc(F)cc4)OCCO3)cc2[nH]1 | growth | % | 21.2
CCC1C[N+]2=C(c3cc(OC)c(OC)cc3CC2)c2c1cc1n2CCc2cc(OC)c(OC)cc2-1 (stereo unspecified) | growth | % | -46.8
CN(C)CCSC1=Nc2ccc(Cl)cc2C(c2ccccc2Cl)N(C)C1 (stereo unspecified) | growth | % | 68.7
O=[N+]([O-])c1ccc(Oc2ccccc2Cl)c([N+](=O)[O-])c1 | growth | % | 95.1
O=[N+]([O-])c1ccc([I+]c2ccccc2)cc1 | growth | % | -29.5
CSc1nc(C)c(C(=O)CCN2CCN(c3ccccn3)CC2)s1 | growth | % | 101
CCCCCCCCCCCC[n+]1ccccc1 (tested in a mixture with another compound) | growth | % | -98.5
Oc1ccc2c(c1)CCc1ccccc1-2 | growth | % | 97.8
O=C(c1ccccc1)C(O)C(Br)(CBr)c1ccccc1 (stereo unspecified) | growth | % | 85.6
CC1(C)OC2C(COC(c3ccccc3)(c3ccccc3)c3ccccc3)OC(c3c[nH]c4c(N)ncnc34)C2O1 (stereo unspecified) | growth | % | 60.8
CCc1cnc2ccccc2c1/C=C/c1ccc(N(C)C)cc1 | growth | % | 46.6
C(=N\Nc1ccc2ccccc2n1)/c1ccccn1 | growth | % | -10.8
CCCCCCCCCCCCCCCCSC(=NCC)NCC | growth | % | -38
CCOC(=O)C1(C)CCCC1N (stereo unspecified) | growth | % | 98
O=C(c1ccc(O)c(Br)c1)c1ccc(O)c(Br)c1 | growth | % | 99.4
OC(c1cc2ccc(C(F)(F)F)cc2c2cc(C(F)(F)F)ccc12)C1CCCCN1 (stereo unspecified) | growth | % | -95.4
Cc1ccc2cccc(OC(=O)Nc3cccc(C(F)(F)F)c3)c2n1 | growth | % | 86.4
CCCN(CCC)C(=O)c1ccc(C)cc1 | growth | % | 92.2
CC1(O)CCCCCC1 | growth | % | 101
CCC(C)C(N)C(=O)NC(CC(N)=O)C(=O)NC(CC(C)C)C(=O)NC(CCCCN)C(=O)NC(C)C(=O)NC(CC(C)C)C(=O)NC(C)C(=O)NC(C)C(=O)NC(CC(C)C)C(=O)NC(C)C(=O)NC(CCCCN)C(=O)NC(CCCCN)C(=O)NC(C(=O)NC(CC(C)C)C(N)=O)C(C)CC (stereo unspecified) | growth | % | 3.42
CC(=O)c1ccc2c(c1)CCc1ccccc1-2 | growth | % | 99.6
O=C(c1ccccc1)C(Br)C(Br)c1ccccc1 (stereo unspecified) | growth | % | 107
O=C1/C(=C/c2ccccc2)CCC/C1=C\c1ccccc1 | growth | % | 86.7
CCN(CC)CCNc1ccc([N+](=O)[O-])c2sc3ccccc3c(=O)c12 | growth | % | 21.1
O=C1CSC(=S)N1Cc1cccnc1 | growth | % | 99.8
COc1cc(NC(=O)C2=C(C)NC(C)=C(C(=O)Nc3cc(OC)c(Cl)cc3OC)C2c2cccc([N+](=O)[O-])c2)c(OC)cc1Cl | growth | % | -5.53
CN(C)c1ccc2cc3c(cc2c1)Oc1ccccc1N3.[Cl][Zn][Cl] | growth | % | 70.6
N#CC(I)CS(=O)(=O)c1ccccc1 (stereo unspecified) | growth | % | 97.5
CCCCCCCCCCCCN1C(C)=CS/C1=C\C=C\c1scc(C)[n+]1CCCCCCCCCCCC | growth | % | -83.9
CCOc1ccc2c(c1)/C(=C\C=C\C1CC(C)C3CC(OCC)CCC3N1CC)CC(C)N2CC (stereo unspecified) | growth | % | -86.3
Cn1c(-c2ccccc2)c(/C=C/C2=[N+](C)c3ccccc3C2(C)C)c2ccccc21 | growth | % | -98.4
NCCCN(CCCN)CCCNCc1c2ccccc2c(CNCCCN(CCCN)CCCN)c2ccccc12 | growth | % | 98.6
CN(C)CC(C)(CN(C)C)C(=O)/C=C/c1c(Cl)cccc1Cl | growth | % | 56.3
CCCOS(=O)(=O)c1ccccc1 | growth | % | 112
c1ccc(-c2cc3cc4ccccc4cn3c2)cc1 | growth | % | 80.6
NC(=Nc1nc(-c2ccccn2)cc2ccccc12)c1ccccn1 | growth | % | -79.4
